This listing pairs molecules with measured inhibition.
# ASSAY OVERVIEW: MDA-MB-436 breast carcinoma cell growth inhibition, synergistic combos for chromothripsis tumors, BGB or cisplatin combos (AID 1671458);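 also: cells exposed for 96 hours; 0% = vehicle DMSO and 100% = killing by high DMSO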
# TEST CONTEXT: MDA-MB-436 breast carcinoma growth inhibition, drug combinations; measured here: BGB combination; at 0.5 µM; stronger effect = higher value
All answers are understood in %, so give the number only.

[
  {
    "MOLECULE": "O=P(O)(NCCCl)NCCCl",
    "inhibition (%)": -12.5
  }
]

Data request: Give a short answer stating reported inhibition for O=C1CCC[C@@H]2[C@H]3CCCN4CCC[C@@H](CN12)[C@@H]34 .
Data returned: -5.75

Data request: Give a short answer stating reported inhibition for Cn1c(CCCC(=O)O)nc2cc(N(CCCl)CCCl)ccc21 .
Data returned: -33

Data request: Give a short answer stating reported inhibition for O=c1[nH]c(=O)n(C2OC(CO)C(O)C2O)cc1F (configuration not stated) .
Data returned: 27.6

Data request: Give a short answer stating reported inhibition for O=C(O)CCCc1ccc(N(CCCl)CCCl)cc1 .
Data returned: -17.2

Data request: Give a short answer stating reported inhibition for Cc1c2ccncc2c(C)c2c1[nH]c1ccccc12 .
Data returned: -20.5

Data request: Give a short answer stating reported inhibition for CN(C)NC(=O)CCC(=O)O .
Data returned: -22.6
